Taken from PubChem BioAssay (NCI).

system: U251 CNS
API: response.call in active, inactive

Record Smiles	Class Name
O=C1/C(=C/c2ccccc2F)CNC/C1=C\c1ccccc1F	active
O=Cc1cn(Cc2cccc(Cl)c2)c2ccccc12	inactive
N=c1c2c(-c3ccccc3)c(-c3ccccc3)n(Cc3ccccc3)c2ncn1CCCO	inactive
COc1ccc(C(=O)/C=C/c2c(C(F)(F)F)nc3sccn23)cc1OC	inactive

q: Entry C=C(C)[C@@H]1CC[C@]2(C(=O)NCCNCCNCCN)CC[C@]3(C)[C@H](CC[C@@H]4[C@@]5(C)CC[C@H](O)C(C)(C)[C@@H]5CC[C@]43C)[C@@H]12 : call = ?
a: inactive

q: Returns: the outcome recorded for C[C@]12CC[C@@H]3c4ccc(O)cc4CC[C@H]3[C@@H]1CC[C@@H]2NS(=O)(=O)c1cccc(C(F)(F)F)c1 in this assay.
a: inactive
